# Protocol Summary: folding stability dG unfold from trypsin proteolysis; higher = more stable
// map folding stability dG unfold onto a label; ranges band 1 (below 4 kJ/mol), band 2 (4 kJ/mol to below 10 kJ/mol), band 3 (10 kJ/mol or more)

Class for SAGGSAGGSKKVVTYESVTLTVLVERTLPDPEGNPVTTTRVVEEPVRVTKVDFDTKVETYVVGSAGGSAGGS [r20_58_JUSTAS] ?
band 1

Hi, small favor: classify SEKTVLSSSTSTSPTSITTTTTVKLPDGSLITTTTTYSSVTAAPTPAPGGTLVPTYSLPTTTTTTTLPPASA [r9_240_JUSTAS] by its folding stability dG unfold when you get a moment.
band 1

// return the class label for ERDLIVIAGDDLTPEQLRELLEELGFRPEDAEIFREGDALLIVLPDAVILVVRPPPLPVLSEDDPELLEEAS [r1_57_TrMRF]
band 3

Sort into band: SAGGSAGGSAGGSIEINIMFELPNGLIFRISTTIEPNPDGNLKLDIDIEVIPIKPGQPISAGGSAGGSAGGS [r10_241_TrROS]
band 3

Class? Entry: SAGGSAGGKPVTVEVDIVVKPGDTIEFPPGAKVEIVEKKEVEVNGKKYQVFKIKVTLPPGEEALSAGGSAGG [r6_454_TrROS_Hall]
band 2

Hi, small favor: classify SAGGMRIYIPPELPEEKVEEIREEAEEEFPVEVTLERFPEPGYVVLEFEGEEEELYRRIEEKIREKGSAGGS [r16_227_TrMRF] by its folding stability dG unfold when you get a moment.
band 2

For SSEKEVEVTIKIPLYYERPDGTIEEYDIEIKVKVKIDNGGFIAENLEEAIREVLEKLNIPEGHPDAPYFNKS [r1_175_TrMRF] , which folding stability dG unfold bin applies?
band 2

Form field 'band' for SAGGSPIYVRIEWEPPGNGKEREKEIPIKNVDSPDQLVDEAKEEAMKDGGPIKDIEVYDPDDGRPFPLSAGG [r13_771_TrROS]
band 1

Category of SMVEIKVEKKEDGTVKITIVAPLEKAEEIAKKLAEELGKEVKIVKIEKKKVKVNGEERELVKIEIEIRLPSA [r9_431_TrROS_Hall] :
band 3

Which class is correct for the following sequence? SAGGSAGGSMKKIKVKIKITDKDGNKKEVEAEIFFDEETGKLYIKLPNGEVKEISLEDIEIVESAGGSAGGS [r12_256_TrROS_Hall]
band 3

The entry to classify is SAGGSAGGSAGGKMRLYRFNLKTNKIEEVEAEPGEVIKITFPGKEIVLVVKDGKIELIPSAGGSAGGSAGGS [r10_817_TrROS_Hall] ; which class holds it?
band 1

Which folding stability dG unfold band matches SAGGSAGGSAGAPPEGAKPVEEETVPIEIQMRNDDDGKPIMPIKFEVRVYKFPDGIFISISAGGSAGGSAGG [r11_415_TrROS] ?
band 2

Just checking, what class would you give SAGGSAGGSLEKIKEALKKAGYPPENVVIEVKTLPNGEIVITVKYNGKEIPKEIVEEAIKKLKSAGGSAGGS [r12_175_JUSTAS] here?
band 3
